These data points were gathered from paper PMC2568053.

// reported kon per item
Target: T1, recombinant Trypanosoma cruzi trans-sialidase TcTS611/2 (Trypanosoma cruzi, clone TcTS611/2 …, UniProt Q26966)
T1 construct: Trypanosoma cruzi trans-sialidase (TcTS), clone 611/2: entire globular core of TcTS without SAPA repeats; also called recombinant TcTS; pTrcTS611/2
Test: IAsys biosensor
Conditions: both partners purified
property.measured: kon (M⁻¹ s⁻¹)

binder: VHHSI14 (VHH, also called clone SI14; VHHS14; not shown: His6, C-terminal, kept) VHH: GGGLVQAGGSLRLSCAASGRTFYNYAMGWFRQAPGKEREFVAAISWSGGSTLYADSVKGRFTISRANAQNTVYLQMNKLKPEDTAVYYCAADADAQPMGVIENYDYWGQG
experimental.value: 119000
--
binder: VHHSI57 (VHH, also called clone SI57; not shown: His6, C-terminal, kept) VHH: GGGLVQAGGSLRLSCAASGRTLYNYAMGWFRQAPGKEREFVAAISWSGGSTEYADSVKGRFTISRANAQNKVYLQMNSLKPEDTAVYYCAADADAQPMGVIENYDYWGQG
experimental.value: 165000
--
binder: VHHSI52 (VHH, also called clone SI52; not shown: His6, C-terminal, kept) VHH: GGGLVQAGGSLRLSCAASGRTFYNYAMGWFRQAPGKEREFVAAISWSGGSTLYTDSVKGRFTISRANGQNTVYLQMNSLKPEDTAVYYCAADADAQPMGIIENYDYWGQG
experimental.value: 149000
--
binder: VHHSI96 (VHH, also called clone SI96; not shown: His6, C-terminal, kept) VHH: GGGLVQAGGSLRLSCAASGPTFYNYAMGWFRQAPGKEREFVAAISWSGGSTYYADSVKGRFTISRANAHNTVYLQMNSLKPEDTAVYYCAADADAQPMGIIENYDYWGQG
experimental.value: 352000
